Cited source for all entries: ChEMBL document CHEMBL4725318

# Tested on: Pectobacterium carotovorum
# measurementProtocol: Bactericidal activity against Erwinia carotovora
# Type: functional
For each entry below, report its MBC value.
Give bare numbers, in µM.

// below: answered compounds
compound: O=C(N[C@H](CO)[C@H](O)c1ccc([N+](=O)[O-])cc1)C(Cl)Cl [CHLORAMPHENICOL]
targetEntity: Pectobacterium carotovorum
MBC (µM): 0.5

compound: CC(C)CC(=O)/C(=C/c1ccc([N+](=O)[O-])cc1)n1cncn1
targetEntity: Pectobacterium carotovorum
MBC (µM): 0.8

compound: CN(C)c1ccc(/C=C(/C(=O)c2ccc3ccccc3c2)n2cncn2)cc1
targetEntity: Pectobacterium carotovorum
MBC (µM): 2.7

For each entry beneath this line, provide reported MBC.
1. O=C(/C(=C/c1cc([N+](=O)[O-])ccc1O)n1cncn1)c1ccc(Cl)cc1
2. O=C(/C(=C/c1ccccc1)n1cncn1)c1ccc(Cl)cc1Cl

Given back:
1. 2.7
2. 5.8

* * *

# System: Pseudomonas fluorescens
# measurementProtocol: Bactericidal activity against Pseudomonas fluorescens
# Format: functional
measuredProperty: MBC (µM)
One number for each entry, in µM.

compound: O=C(/C(=C/c1cc([N+](=O)[O-])ccc1O)n1cncn1)c1ccc(Cl)cc1
quantitativeResult: 2.7
--
compound: O=C(/C(=C/c1ccccc1)n1cncn1)c1ccc(Cl)cc1Cl
quantitativeResult: 2.9
--
compound: CC1(C)S[C@@H]2[C@H](NC(=O)[C@H](N)c3ccccc3)C(=O)N2[C@H]1C(=O)O [AMPICILLIN]
quantitativeResult: 8.6
--
compound: CN(C)c1ccc(/C=C(/C(=O)c2ccc(-c3ccccc3)cc2)n2cncn2)cc1
quantitativeResult: 2.5

# next compound below
Asked: Hello, please tell me recorded MBC for this one: CN(C)c1ccc(/C=C(/C(=O)c2ccc3ccccc3c2)n2cncn2)cc1
Given back: 2.7

* * *

# Test system: Xanthomonas campestris
# measurementProtocol: Antibacterial activity against Xanthomonas campestris by microdilution method
# Format: functional
Field 'label' (enum: Condition met / Condition not met). Set to Condition met when MIC is strictly under 1 µM; else Condition not met.

Asked: Could you please tell me whether MIC recorded for CN(C)c1ccc(/C=C(/C(=O)c2ccc3ccccc3c2)n2cncn2)cc1 is less than 1 µM?
Given back: Condition not met

Asked: Could you please tell me whether MIC recorded for CC(C)CC(=O)/C(=C/c1ccc([N+](=O)[O-])cc1)n1cncn1 is less than 1 µM?
Given back: Condition met

Asked: Could you please tell me whether MIC recorded for CC1(C)S[C@@H]2[C@H](NC(=O)[C@H](N)c3ccccc3)C(=O)N2[C@H]1C(=O)O [AMPICILLIN] is less than 1 µM?
Given back: Condition met

* * *

# Tested on: Aspergillus niger
# measurementProtocol: Antifungal activity Aspergillus niger by microdilution method
# Type: functional
measuredProperty: log10 MIC (log10 of the value in µM)
Please be aware that the numbers have been log10-transformed from MIC in µM.

// below: answered compounds
compound: O=C(/C(=C/c1ccccc1)n1cncn1)c1ccc(Cl)cc1Cl
log10 MIC: 2.20
--
compound: O=C(/C(=C/c1cccc(O)c1)n1cncn1)c1ccccc1
log10 MIC: 2.72
--
compound: O=C(/C(=C/c1ccc([N+](=O)[O-])cc1)n1cncn1)c1ccc(Cl)cc1
log10 MIC: 2.15
--
compound: CN(C)c1ccc(/C=C(/C(=O)c2ccc(-c3ccccc3)cc2)n2cncn2)cc1
log10 MIC: 2.40
--
compound: CN(C)c1ccc(/C=C(/C(=O)c2ccc3ccccc3c2)n2cncn2)cc1
log10 MIC: 2.15

For each entry beneath this line, provide reported log10 MIC.
1. CC(C)(C)c1cc(/C=C(/C(=O)c2ccc(Cl)cc2Cl)n2cncn2)cc(C(C)(C)C)c1O
2. O=C(/C(=C/c1cc([N+](=O)[O-])ccc1O)n1cncn1)c1ccc(Cl)cc1
3. c1ccc(-c2ccc(C(c3ccccc3)n3ccnc3)cc2)cc1 (stereo not given)
4. CC(=O)N1CCN(c2ccc(OCC3COC(Cn4ccnc4)(c4ccc(Cl)cc4Cl)O3)cc2)CC1 (stereo not given)
5. CC(C)CC(=O)/C(=C/c1ccc([N+](=O)[O-])cc1)n1cncn1

Given back:
1. 1.90
2. 2.18
3. 2.68
4. 2.58
5. 1.30

* * *

For each entry below, report its MFC value.
# Tested on: Aspergillus fumigatus
# measurementProtocol: Fungicidal activity Aspergillus fumigatus
# Type: functional
Numbers only, in µM.

// below: answered molecules
molecule: O=C(/C(=C/c1cccc(O)c1)n1cncn1)c1ccccc1
quantitativeResult: 520

molecule: O=C(/C(=C/c1ccccc1)n1cncn1)c1ccc(Cl)cc1Cl
quantitativeResult: 220

molecule: CC(C)CC(=O)/C(=C/c1ccc([N+](=O)[O-])cc1)n1cncn1
quantitativeResult: 30

molecule: CN(C)c1ccc(/C=C(/C(=O)c2ccc(-c3ccccc3)cc2)n2cncn2)cc1
quantitativeResult: 510

molecule: c1ccc(-c2ccc(C(c3ccccc3)n3ccnc3)cc2)cc1 (stereo not given)
quantitativeResult: 640

molecule: CN(C)c1ccc(/C=C(/C(=O)c2ccc3ccccc3c2)n2cncn2)cc1
quantitativeResult: 270

molecule: O=C(/C(=C/c1ccc([N+](=O)[O-])cc1)n1cncn1)c1ccc(Cl)cc1
quantitativeResult: 190

molecule: CC(C)(C)c1cc(/C=C(/C(=O)c2ccc(Cl)cc2Cl)n2cncn2)cc(C(C)(C)C)c1O
quantitativeResult: 160

For each entry beneath this line, provide reported MFC.
1. O=C(/C(=C/c1cc([N+](=O)[O-])ccc1O)n1cncn1)c1ccc(Cl)cc1
2. CC(=O)N1CCN(c2ccc(OCC3COC(Cn4ccnc4)(c4ccc(Cl)cc4Cl)O3)cc2)CC1 (stereo not given)

Given back:
410
940

* * *

# Tested on: Xanthomonas campestris
# measurementProtocol: Bactericidal activity against Xanthomonas campestris
# Assay type: functional
For each entry below, report its MBC value.
Numbers only, in µM.

For each entry beneath this line, provide reported MBC.
1. O=C(/C(=C/c1ccccc1)n1cncn1)c1ccc(Cl)cc1Cl
2. O=C(/C(=C/c1cccc(O)c1)n1cncn1)c1ccccc1
3. CN(C)c1ccc(/C=C(/C(=O)c2ccc3ccccc3c2)n2cncn2)cc1
4. O=C(/C(=C/c1cc([N+](=O)[O-])ccc1O)n1cncn1)c1ccc(Cl)cc1

Given back:
1: 2.9; 2: 3.4; 3: 5.4; 4: 2.7

* * *

# Test system: Xanthomonas campestris
# measurementProtocol: Antibacterial activity against Xanthomonas campestris by microdilution method
# Type: functional
measuredProperty: MIC (µM)
Give bare numbers, in µM.

// below: answered compounds
chemicalSmiles: O=C(N[C@H](CO)[C@H](O)c1ccc([N+](=O)[O-])cc1)C(Cl)Cl
MIC (µM): 0.1
--
chemicalSmiles: CN(C)c1ccc(/C=C(/C(=O)c2ccc(-c3ccccc3)cc2)n2cncn2)cc1
MIC (µM): 5.1
--
chemicalSmiles: O=C(/C(=C/c1ccc([N+](=O)[O-])cc1)n1cncn1)c1ccc(Cl)cc1
MIC (µM): 1.3

For each entry beneath this line, provide reported MIC.
1. O=C(/C(=C/c1cc([N+](=O)[O-])ccc1O)n1cncn1)c1ccc(Cl)cc1
2. O=C(/C(=C/c1ccccc1)n1cncn1)c1ccc(Cl)cc1Cl
3. O=C(/C(=C/c1cccc(O)c1)n1cncn1)c1ccccc1
4. CC(C)(C)c1cc(/C=C(/C(=O)c2ccc(Cl)cc2Cl)n2cncn2)cc(C(C)(C)C)c1O

Given back:
1: 1.3; 2: 2.9; 3: 1.7; 4: 17
